assay: MTS cytotoxicity assay, HUVEC; assay type: cell-based; conditions: human
Endpoint Label: IC50 at 72 h (nM)
API: value field is a number in nM; no unit string.

Here's what some known entries look like.
Input Smiles	Recorded Result
C[C@]12CC[C@@H]3c4ccc(O)cc4CC[C@H]3[C@@H]1CC[C@@]2(O)c1cn(Cc2cccc(Cn3cc([C@]4(O)CC[C@H]5[C@@H]6CCc7cc(O)ccc7[C@H]6CC[C@@]54C)nn3)c2)nn1	13.5
Cc1cc(C)c(Cn2cc([C@]3(O)CC[C@H]4[C@@H]5CCc6cc(O)ccc6[C@H]5CC[C@@]43C)nn2)cc1Cn1cc([C@]2(O)CC[C@H]3[C@@H]4CCc5cc(O)ccc5[C@H]4CC[C@@]32C)nn1	38
COc1c(Cn2cc([C@]3(O)CC[C@H]4[C@@H]5CCc6cc(O)ccc6[C@H]5CC[C@@]43C)nn2)cc(C)cc1Cn1cc([C@]2(O)CC[C@H]3[C@@H]4CCc5cc(O)ccc5[C@H]4CC[C@@]32C)nn1	79
CC(=O)Oc1cc(Cn2cc([C@]3(O)CC[C@H]4[C@@H]5CCc6cc(O)ccc6[C@H]5CC[C@@]43C)nn2)cc(Cn2cc([C@]3(O)CC[C@H]4[C@@H]5CCc6cc(O)ccc6[C@H]5CC[C@@]43C)nn2)c1	16
CC(=O)Oc1c(Cn2cc([C@]3(O)CC[C@H]4[C@@H]5CCc6cc(O)ccc6[C@H]5CC[C@@]43C)nn2)cc(C)cc1Cn1cc([C@]2(O)CC[C@H]3[C@@H]4CCc5cc(O)ccc5[C@H]4CC[C@@]32C)nn1	14

Alright, here's another compound for you.
Give recorded IC50 at 72 h. "C[C@]12CC[C@@H]3c4ccc(O)cc4CC[C@H]3[C@@H]1CC[C@@]2(O)c1cn(Cc2ccc(O)c(Cn3cc([C@]4(O)CC[C@H]5[C@@H]6CCc7cc(O)ccc7[C@H]6CC[C@@]54C)nn3)n2)nn1" 657
